Molecular target: IGF-1R (Homo sapiens, UniProt P08069)
Construct: purchased Upstate Co. 14-465
Sequence (P08069 959-1367 limits assumed): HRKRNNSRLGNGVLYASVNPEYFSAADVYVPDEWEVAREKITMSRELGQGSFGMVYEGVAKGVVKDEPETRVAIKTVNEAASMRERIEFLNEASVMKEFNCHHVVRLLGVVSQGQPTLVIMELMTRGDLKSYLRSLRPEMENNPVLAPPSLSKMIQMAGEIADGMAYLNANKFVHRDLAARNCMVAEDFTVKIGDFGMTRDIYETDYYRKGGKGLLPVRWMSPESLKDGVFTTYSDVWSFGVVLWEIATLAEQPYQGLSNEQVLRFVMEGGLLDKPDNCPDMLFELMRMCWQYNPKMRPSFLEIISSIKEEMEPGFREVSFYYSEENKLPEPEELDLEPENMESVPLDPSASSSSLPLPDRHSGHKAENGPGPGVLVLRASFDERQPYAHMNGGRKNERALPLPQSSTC
Experiment: IGF-1R inhibitory activity (kinase reaction, time-resolved fluoroimmunoassay)
Format: biochemical
Settings: IGF-1R active recombinant enzyme, test compound 10 μmol/L
measurement.name: inhibition at 10 µM (%)
Express it in %; write the number only.

-- ask Identify inhibition at 10 µM associated with the compound O=C(Nc1ccccc1/C=C/c1n[nH]c2ccccc12)c1ccc(O)cc1
-- reply 101

-- ask State its inhibition at 10 µM: C(=C\c1n[nH]c2ccccc12)/c1ccccc1OCCc1ccccc1
-- reply 92.1

-- ask Give inhibition at 10 µM for O=C1C2=C(CCCC2)C(=O)N1c1ccccc1/C=C/c1n[nH]c2ccccc12
-- reply 101

-- ask Respond only with inhibition at 10 µM recorded for OCc1csc(Nc2ccccc2/C=C/c2n[nH]c3ccccc23)n1
-- reply 97.8

-- ask Give the reported inhibition at 10 µM for this compound. OCCOc1ccccc1/C=C/c1n[nH]c2ccccc12
-- reply 93.4

-- ask Determine from records and report inhibition at 10 µM for O=C(Nc1ccccc1/C=C/c1n[nH]c2ccccc12)c1cccnc1
-- reply 97.8

-- ask Let me know recorded inhibition at 10 µM for Nc1cccc2c1C(=O)N(c1ccccc1/C=C/c1n[nH]c3ccccc13)C2=O , thanks.
-- reply 102

---

Molecular target: IGF-1R (Homo sapiens, UniProt P08069)
Construct: purchased Upstate Co. 14-465
Test: IGF-1R inhibitory activity (kinase reaction, time-resolved fluoroimmunoassay)
Format: biochemical
Conditions: IGF-1R active recombinant enzyme, test compound 10 μmol/L
measurement.name: inhibition at 10 µM (%)
Only the number, expressed in %, is required.

>>> df
                                   compound  unit_info  value
0  Cc1ccsc1C(=O)Nc1cc(N2CCNCC2)ccc1/C=C/c1n[nH]c2ccccc12 [Compound 274]          %    104

-- ask Input Cc1ccsc1C(=O)Nc1cc(C(=O)N(C)C2CCNCC2)ccc1/C=C/c1n[nH]c2ccccc12 [Compound 297] , output reported inhibition at 10 µM.
-- reply 101

-- ask Find the measured inhibition at 10 µM of Nc1cccc2c1C(=O)N(c1ccc(F)cc1/C=C/c1n[nH]c3ccccc13)C2=O [Compound 254] and report it.
-- reply 99.5

-- ask Identify the reported inhibition at 10 µM for the following entry. COCCCN1CCN(C(=O)c2ccc(/C=C/c3n[nH]c4ccccc34)c(N3C(=O)c4cccc(N)c4C3=O)c2)CC1 [Compound 309]
-- reply 97.1

-- ask Return inhibition at 10 µM (reported value) for this compound: Cc1ccsc1C(=O)Nc1cc(C(=O)N(CCO)CCN2CCOCC2)ccc1/C=C/c1n[nH]c2ccccc12 [Compound 259]
-- reply 102

-- ask Quote inhibition at 10 µM reported for O=C(Nc1ccccc1/C=C/c1n[nH]c2ccccc12)c1cccc(F)c1 [Compound 7] please.
-- reply 98.6

-- ask Indicate its recorded inhibition at 10 µM; the compound in question is O=c1[nH]c(-c2ccccc2/C=C/c2n[nH]c3ccccc23)no1 [Compound 178]
-- reply 71.1

-- ask Tell me inhibition at 10 µM reported for CCOC(=O)c1csc(Nc2ccccc2/C=C/c2n[nH]c3ccccc23)n1 [Compound 169]
-- reply 88.4

---

Each entry below lists one item and its recorded inhibition at 10 µM value.
Target: IGF-1R (Homo sapiens)
Construct: purchased Upstate Co. 14-465
Test: IGF-1R inhibitory activity (kinase reaction, time-resolved fluoroimmunoassay)
Assay type: biochemical
Settings: test compound 10 μmol/L
Use % as the unit, but write only the number.

                                smiles_repr  value
0  Cc1ccsc1C(=O)Nc1cc(C(=O)N2CCC3(CC2)OCCO3)ccc1/C=C/c1n[nH]c2ccccc12    102
1  O=C(Nc1ccccc1/C=C/c1n[nH]c2ccccc12)c1ccc([N+](=O)[O-])cc1Cl   60.7
2  COC(=O)c1ccc(/C=C/c2n[nH]c3ccccc23)c(NC(=O)c2sccc2C)c1   97.1
3  Cc1ccsc1C(=O)Nc1cc(N(C)C)ccc1/C=C/c1n[nH]c2ccccc12   94.8
4  CC(=O)N1CCN(C(=O)c2ccc(/C=C/c3n[nH]c4ccccc34)c(NC(=O)c3cccn3C)c2)CC1   98.7

-- ask Please tell me the measured inhibition at 10 µM for COCc1ccc(/C=C/c2n[nH]c3ccccc23)c(NC(=O)c2sccc2C)c1 ; system: IGF-1R (Homo sapiens).
-- reply 98.6

-- ask Lab note: record inhibition at 10 µM of Cc1ccsc1C(=O)Nc1cc(C(=O)O)ccc1/C=C/c1n[nH]c2ccccc12 tested on IGF-1R (Homo sapiens).
-- reply 98.4

-- ask Consider the compound Cc1ccsc1C(=O)Nc1cc(C(=O)NC2CC2)ccc1/C=C/c1n[nH]c2ccccc12 tested on IGF-1R (Homo sapiens); state its inhibition at 10 µM.
-- reply 102

-- ask Using IGF-1R (Homo sapiens) as the test system, report measured inhibition at 10 µM of COC1CCN(C(=O)c2ccc(/C=C/c3n[nH]c4ccccc34)c(NC(=O)c3sccc3C)c2)CC1 .
-- reply 97.5

-- ask // fetch inhibition at 10 µM for O=C(Nc1ccccc1/C=C/c1n[nH]c2ccccc12)c1ccccc1 ; system: IGF-1R (Homo sapiens)
-- reply 99.5

-- ask Give inhibition at 10 µM; test system IGF-1R (Homo sapiens); compound Cc1ccsc1C(=O)Nc1cc(C(=O)N2CCN(C)CC2)ccc1/C=C/c1n[nH]c2ccccc12
-- reply 98.8

-- ask Enter recorded inhibition at 10 µM with IGF-1R (Homo sapiens) for CC(=O)N1CCN(C(=O)c2ccc(/C=C/c3n[nH]c4ccccc34)c(NC(=O)c3cc4ccccc4s3)c2)CC1 here.
-- reply 97

-- ask For IGF-1R (Homo sapiens), give the measured inhibition at 10 µM of the entry Cc1ccsc1C(=O)Nc1cc(C(=O)N(C)C)ccc1/C=C/c1n[nH]c2ccccc12
-- reply 101

-- ask Please respond with reported inhibition at 10 µM (system IGF-1R (Homo sapiens)) for COc1cc(/C=C/c2n[nH]c3ccccc23)c(NC(=O)c2sccc2C)cc1OC .
-- reply 97.2

These measurements were taken from patent US7605272B2.
